Data provenance is patent US9808466B2.

Reported IC50 by item:
Target: mTOR (Homo sapiens, UniProt P42345)
Construct: purchased Invitrogen PV4754
Sequence (P42345 1360-2549 limits assumed): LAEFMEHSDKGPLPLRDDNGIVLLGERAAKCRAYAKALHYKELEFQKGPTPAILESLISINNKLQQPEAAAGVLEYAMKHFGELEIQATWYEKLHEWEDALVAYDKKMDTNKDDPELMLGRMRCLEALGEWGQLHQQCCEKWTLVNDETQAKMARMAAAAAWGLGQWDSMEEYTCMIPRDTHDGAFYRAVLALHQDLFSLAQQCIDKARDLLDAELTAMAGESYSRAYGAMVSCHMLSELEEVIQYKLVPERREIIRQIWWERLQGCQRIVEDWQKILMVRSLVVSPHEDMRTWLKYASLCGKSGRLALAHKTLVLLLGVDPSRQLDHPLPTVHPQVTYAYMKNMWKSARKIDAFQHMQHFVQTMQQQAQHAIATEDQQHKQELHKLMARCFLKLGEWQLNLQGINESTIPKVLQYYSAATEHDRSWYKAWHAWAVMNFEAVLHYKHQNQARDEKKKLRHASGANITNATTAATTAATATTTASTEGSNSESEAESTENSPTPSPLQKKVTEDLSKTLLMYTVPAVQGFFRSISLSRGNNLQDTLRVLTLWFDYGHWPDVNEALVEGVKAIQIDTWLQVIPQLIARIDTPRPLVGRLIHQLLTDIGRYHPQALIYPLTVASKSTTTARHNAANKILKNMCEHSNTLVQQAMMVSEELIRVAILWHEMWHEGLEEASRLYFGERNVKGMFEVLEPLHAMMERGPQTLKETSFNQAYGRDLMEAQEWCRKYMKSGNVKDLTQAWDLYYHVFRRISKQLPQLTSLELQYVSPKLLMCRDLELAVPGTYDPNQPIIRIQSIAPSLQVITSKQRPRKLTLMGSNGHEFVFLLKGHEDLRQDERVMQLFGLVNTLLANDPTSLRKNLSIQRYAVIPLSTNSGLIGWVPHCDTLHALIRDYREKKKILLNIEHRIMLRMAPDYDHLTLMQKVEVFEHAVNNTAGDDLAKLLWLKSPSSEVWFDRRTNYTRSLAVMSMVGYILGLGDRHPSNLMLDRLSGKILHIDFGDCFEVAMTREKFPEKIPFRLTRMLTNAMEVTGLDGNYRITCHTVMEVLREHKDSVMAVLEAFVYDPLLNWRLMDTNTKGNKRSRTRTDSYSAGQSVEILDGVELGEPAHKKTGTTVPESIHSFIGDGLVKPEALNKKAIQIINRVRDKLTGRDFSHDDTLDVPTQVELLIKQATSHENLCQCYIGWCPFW
Test: mTOR assay (LanthaScreen kinase activity assay)
Format: biochemical
Details: read-out: mTOR activity (semi-quantitative IC50)

Guide cases for IC50, answers given:
Lab note: need IC50 for COc1ncc2cc1NS(=O)(=O)c1cccc(c1)C(=O)NC[C@H]1CCN(C1)c1ncnc3c1SC2=C3C on mTOR (Homo sapiens, UniProt P42345), anyone have it?
> 1000 nM

How about this compound: COc1ncc2cc1NS(=O)(=O)c1cccc(c1)C(=O)NCc1cc(F)cc(c1)-c1ncnc3c1SC2=C3C
> 1000 nM

How about this compound: COc1ccc2cc1C(=O)NCC1=CC=C(S1)c1ncnc3c1SC(=C3)c1cnc(OC)c(c1)NS2(=O)=O
> 1000 nM

Next:
Lab note: need IC50 for COc1ccc2cc1C(=O)NCC1=CC=C(S1)c1ncnc3c1SC(=C3C)c1cnc(OC)c(c1)NS2(=O)=O on mTOR (Homo sapiens, UniProt P42345), anyone have it?
> 1000 nM

How about this compound: O=C1NCc2cccc(c2)-c2cnn3ccc(nc23)-c2cnc(O)c(c2)NS(=O)(=O)c2cccc1c2
> 1000 nM

How about this compound: COc1ncc2cc1NS(=O)(=O)c1ccc(Cl)c(c1)C(=O)NCC1=CC=C(S1)c1ccnc3c1SC2=C3C
< 100 nM

How about this compound: COc1ncc2cc1NS(=O)(=O)c1ccc(Cl)c(c1)C(=O)NCC1=CC=C(S1)c1ncnc3c1SC2=C3
> 1000 nM

How about this compound: COc1ncc2cc1NS(=O)(=O)c1cccc(c1)C(=O)NC[C@H]1CCN(C1)c1ncnc3c1SC2=C3
> 1000 nM

How about this compound: COCCOc1ccc2cc1C(=O)NCC1=CC=C(S1)c1ncnc3c1SC(=C3)c1cnc(OC)c(c1)NS2(=O)=O
< 100 nM

How about this compound: COc1ncc2cc1NS(=O)(=O)c1ccc(F)c(c1)C(=O)NCC1=CC=C(S1)c1ncnc3c1SC2=C3C
< 100 nM

How about this compound: COCCOc1ccc2cc1C(=O)NCC1=CC=C(S1)c1ncnc3c1SC(=C3C)c1cnc(OC)c(c1)NS2(=O)=O
> 1000 nM

How about this compound: COc1ncc2cc1NS(=O)(=O)c1cccc(c1)C(=O)NCc1ccncc1-c1ncnc3c1SC2=C3
> 1000 nM

How about this compound: COc1ncc2cc1NS(=O)(=O)c1cccc(c1)C(=O)NC[C@@H]1CCN(C1)c1ncnc3c1SC2=C3
> 1000 nM

How about this compound: COc1ncc2cc1NS(=O)(=O)c1cccc(c1)C(=O)NC[C@@H]1CN(CCO1)c1ncnc3c1SC2=C3C
100 to 1000 nM

* * *

Biological target: PIM-1 (Homo sapiens)
Construct: histidine tag (C); made in house
Sequence (P11309 whole entry): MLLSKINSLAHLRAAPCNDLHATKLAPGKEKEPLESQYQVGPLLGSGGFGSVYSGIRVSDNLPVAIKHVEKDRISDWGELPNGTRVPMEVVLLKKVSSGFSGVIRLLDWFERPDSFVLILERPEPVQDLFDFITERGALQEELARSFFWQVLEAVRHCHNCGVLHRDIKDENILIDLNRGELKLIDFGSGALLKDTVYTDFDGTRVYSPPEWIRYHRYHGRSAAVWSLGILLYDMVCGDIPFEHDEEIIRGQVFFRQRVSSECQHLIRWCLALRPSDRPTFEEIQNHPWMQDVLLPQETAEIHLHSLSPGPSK
Experiment: PIM-1 biochemical assay (ADP Hunter)
Conditions: PIM1; read-out: PIM-1 activity, IC50 (semi-quantitative class)
READOUT: IC50

Guide cases for IC50, answers given:
Request the reported IC50 associated with COc1ncc2cc1NS(=O)(=O)c1cccc(c1)C(=O)NCc1cc(cs1)-c1ncnc3c1SC2=C3
0.1 to 1 µM

How about this compound: COc1ncc2cc1NS(=O)(=O)c1cc(c(F)cc1F)C(=O)NCc1cccc(c1)-c1ccnc3ccc-2cc13
> 1 µM

How about this compound: COc1ncc2cc1NS(=O)(=O)c1cccc(c1)C(=O)NCc1cccc(c1)-c1ncnc3sc-2cc13
> 1 µM

Next:
Request the reported IC50 associated with COc1ncc2cc1NS(=O)(=O)c1cccc(c1)C(=O)NCc1nc(cs1)-c1ncnc3c1SC2=C3
> 1 µM

* * *

Reported IC50 by item:
Target: PIM-1 (Homo sapiens)
Construct: histidine tag (C); made in house
Assay: PIM-1 biochemical assay (ADP Hunter)
Conditions: PIM1; read-out: PIM-1 activity, IC50 (semi-quantitative class)
Description: The biochemical assay to measure PIM-1 activity relies on the ADP Hunter assay kit (DiscoveRx Corp., Cat. #90-0077), that determines the amount of ADP as direct product of the kinase enzyme activity. The enzyme has been expressed and purified in-house as a recombinant human protein with a C-terminal histidine tag. The protein is active and stable. […]

Guide cases for IC50, answers given:
Request the reported IC50 associated with COc1ncc2cc1NS(=O)(=O)c1cccc(c1)C(=O)NCC1CCN(CC1)c1ncnc3ccc-2cc13
> 1000 nM

How about this compound: COc1ncc2cc1NS(=O)(=O)c1cccc(c1)C(=O)NCc1cncc(c1)-c1ncnc3c1SC2=C3
< 100 nM

How about this compound: COc1ncc2cc1NS(=O)(=O)c1cccc(c1)C(=O)NCCn1cc(cn1)-c1ccnc3ccc-2cc13
> 1000 nM

Next:
Request the reported IC50 associated with COc1ncc2cc1NS(=O)(=O)c1cccc(c1)C(=O)NCC1=CC=C(S1)c1ccnc3c1SC2=C3
< 100 nM

* * *

Molecular target: PI3K (p110α/p85α) (Homo sapiens)
Construct: purchased Carna Biosciences 07CBS-0402A
Sequence (P42336 whole entry): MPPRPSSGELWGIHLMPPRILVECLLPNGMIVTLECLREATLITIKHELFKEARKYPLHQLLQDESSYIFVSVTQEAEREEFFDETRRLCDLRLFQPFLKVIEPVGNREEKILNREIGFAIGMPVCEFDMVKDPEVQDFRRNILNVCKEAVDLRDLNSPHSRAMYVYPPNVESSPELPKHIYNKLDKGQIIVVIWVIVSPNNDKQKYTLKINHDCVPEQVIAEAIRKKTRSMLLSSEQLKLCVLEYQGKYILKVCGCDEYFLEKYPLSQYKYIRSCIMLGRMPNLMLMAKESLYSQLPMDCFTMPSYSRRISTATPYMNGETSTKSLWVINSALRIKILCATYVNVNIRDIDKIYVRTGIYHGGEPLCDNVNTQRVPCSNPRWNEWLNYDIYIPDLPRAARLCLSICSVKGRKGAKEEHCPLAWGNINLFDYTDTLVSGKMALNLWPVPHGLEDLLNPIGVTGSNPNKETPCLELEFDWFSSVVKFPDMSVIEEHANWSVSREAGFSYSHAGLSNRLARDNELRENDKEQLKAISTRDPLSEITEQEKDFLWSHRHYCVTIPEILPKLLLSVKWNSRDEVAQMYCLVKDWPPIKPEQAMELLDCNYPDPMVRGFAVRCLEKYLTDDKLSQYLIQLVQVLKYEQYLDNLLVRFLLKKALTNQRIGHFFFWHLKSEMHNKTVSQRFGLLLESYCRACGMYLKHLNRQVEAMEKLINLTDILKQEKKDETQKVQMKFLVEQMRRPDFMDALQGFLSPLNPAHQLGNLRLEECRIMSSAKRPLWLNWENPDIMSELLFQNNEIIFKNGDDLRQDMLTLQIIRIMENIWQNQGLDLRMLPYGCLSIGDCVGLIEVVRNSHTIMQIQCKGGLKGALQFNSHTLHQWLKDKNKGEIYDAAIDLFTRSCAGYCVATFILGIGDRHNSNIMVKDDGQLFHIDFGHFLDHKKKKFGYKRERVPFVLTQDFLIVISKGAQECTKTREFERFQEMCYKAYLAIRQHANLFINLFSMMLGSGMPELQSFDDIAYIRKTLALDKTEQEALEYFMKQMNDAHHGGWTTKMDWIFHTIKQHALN
Sequence (P27986 whole entry partner): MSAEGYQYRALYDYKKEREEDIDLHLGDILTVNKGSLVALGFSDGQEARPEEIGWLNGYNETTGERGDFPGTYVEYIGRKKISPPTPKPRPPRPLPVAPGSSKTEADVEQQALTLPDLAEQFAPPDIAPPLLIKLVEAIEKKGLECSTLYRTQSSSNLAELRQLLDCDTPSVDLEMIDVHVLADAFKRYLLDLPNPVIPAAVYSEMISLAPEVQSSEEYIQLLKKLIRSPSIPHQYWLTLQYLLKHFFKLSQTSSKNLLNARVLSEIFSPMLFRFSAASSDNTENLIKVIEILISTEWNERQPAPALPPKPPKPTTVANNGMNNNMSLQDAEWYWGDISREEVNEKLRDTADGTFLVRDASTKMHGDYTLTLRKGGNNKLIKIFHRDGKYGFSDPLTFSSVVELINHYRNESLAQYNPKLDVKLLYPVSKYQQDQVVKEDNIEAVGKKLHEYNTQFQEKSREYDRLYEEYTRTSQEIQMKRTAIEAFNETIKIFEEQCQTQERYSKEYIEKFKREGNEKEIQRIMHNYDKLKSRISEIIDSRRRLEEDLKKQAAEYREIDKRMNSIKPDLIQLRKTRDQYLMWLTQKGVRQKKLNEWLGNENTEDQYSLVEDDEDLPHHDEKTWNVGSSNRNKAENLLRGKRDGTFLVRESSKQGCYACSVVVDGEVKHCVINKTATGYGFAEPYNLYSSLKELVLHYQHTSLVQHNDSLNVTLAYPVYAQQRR
Test: PI3K activity assay (ADP Hunter Plus)
Format: biochemical
Settings: read-out: PI3K alpha activity, IC50 (semi-quantitative class)
READOUT: IC50

Lab note: need IC50 for COc1ncc2cc1NS(=O)(=O)c1cccc(c1)C(=O)NCc1cccc(c1F)-c1ccnc3ccc-2cc13 on PI3K (p110α/p85α) (Homo sapiens), anyone have it?
< 100 nM

How about this molecule: COc1ncc2cc1NS(=O)(=O)c1cc(c(F)cc1F)C(=O)NCc1cccc(c1)-c1ccnc3ccc-2cc13
< 100 nM

How about this molecule: COc1ncc2cc1NS(=O)(=O)c1cccc(c1)C(=O)NCCCNc1ncnc3c1SC2=C3
> 1000 nM

Next:
Lab note: need IC50 for COc1ncc2cc1NS(=O)(=O)c1cccc(c1)C(=O)NCC1=CC=C(S1)c1ccnc3[nH]c-2cc13 on PI3K (p110α/p85α) (Homo sapiens), anyone have it?
100 to 1000 nM

How about this molecule: COc1ncc2cc1NS(=O)(=O)c1cccc(c1)C(=O)NCc1nc(cs1)-c1ncnc3c1SC2=C3
100 to 1000 nM

How about this molecule: COc1ncc2cc1NS(=O)(=O)c1cccc(c1)C(=O)NCc1cncc(c1)-c1nc(C)nc3c1SC2=C3
100 to 1000 nM

How about this molecule: COc1ncc2cc1NS(=O)(=O)c1cccc(c1)C(=O)NCCn1cc(cn1)-c1ncnc3c1SC2=C3C
< 100 nM

* * *

Reported AUC(0-inf) by item:
Test: Pharmacokinetic in BALB-c female mice, i.v. and oral
Format: in vivo
Details: mouse, iv, I.V, dose 5.00 mg/Kg, plasma
Just the number in ng·h/mL, nothing appended.

Request the reported AUC(0-inf) associated with COc1ncc2cc1NS(=O)(=O)c1cccc(c1)C(=O)NCC1=CC=C(S1)c1ncnc3c1SC2=C3C
16600

Next:
Request the reported AUC(0-inf) associated with COc1ncc2cc1NS(=O)(=O)c1cccc(c1)C(=O)NCCn1cc(cn1)-c1ncnc3ccc-2cc13
9160

How about this compound: COc1ncc2cc1NS(=O)(=O)c1cccc(c1)C(=O)NCc1cccc(c1)-c1ncnc3ccc-2cc13
66900

How about this compound: COc1ncc2cc1NS(=O)(=O)c1cccc(c1)C(=O)NCc1cccc(c1)-c1cnn3ccc-2nc13
23600

How about this compound: COc1ncc2cc1NS(=O)(=O)c1cccc(c1)C(=O)NCc1cncc(c1)-c1ccnc3ccc-2nc13
8930

How about this compound: COc1ncc2cc1NS(=O)(=O)c1cccc(c1)C(=O)NCc1cccc(c1)-c1ccnc3ccc-2cc13
23700

* * *

Reported pIC50 by item:
Biological target: PIM-1 (Homo sapiens)
Construct: histidine tag (C); made in house
Test: PIM-1 biochemical assay (ADP Hunter)
Conditions: read-out: PIM-1 IC50 (in parentheses)
pIC50 (log units): -log10 of the concentration in mol/L.

Guide cases for pIC50, answers given:
Request the reported pIC50 associated with COc1ncc2cc1NS(=O)(=O)c1cccc(c1)C(=O)NC[C@H]1CCN(C1)c1ncnc3c1SC2=C3C
7.28

How about this compound: COc1ncc2cc1NS(=O)(=O)c1ccc(Cl)c(c1)C(=O)NCC1=CC=C(S1)c1ccnc3c1SC2=C3C
8.02

Next:
Request the reported pIC50 associated with COc1ncc2cc1NS(=O)(=O)c1ccc(Cl)c(c1)C(=O)NCC1=CC=C(S1)c1ncnc3c1SC2=C3
7.89

How about this compound: COc1ccc2cc1C(=O)NCC1=CC=C(S1)c1ncnc3c1SC(=C3C)c1cnc(OC)c(c1)NS2(=O)=O
7.51

How about this compound: COc1ncc2cc1NS(=O)(=O)c1cccc(c1)C(=O)NC[C@@H]1CN(CCO1)c1ncnc3c1SC2=C3C
7.33

How about this compound: COc1ncc2cc1NS(=O)(=O)c1cccc(c1)C(=O)NC[C@@H]1CCN(C1)c1ncnc3c1SC2=C3C
7.19

How about this compound: COc1ccc2cc1C(=O)NCC1=CC=C(S1)c1ncnc3c1SC(=C3)c1cnc(OC)c(c1)NS2(=O)=O
7.21
